Overview of recorded IC50 for various binders
Assayed target: T1, activated human complement C1s (human, UniProt P09871 16-688)
T1 construct: also called aC1s; active C1s
T1 sequence: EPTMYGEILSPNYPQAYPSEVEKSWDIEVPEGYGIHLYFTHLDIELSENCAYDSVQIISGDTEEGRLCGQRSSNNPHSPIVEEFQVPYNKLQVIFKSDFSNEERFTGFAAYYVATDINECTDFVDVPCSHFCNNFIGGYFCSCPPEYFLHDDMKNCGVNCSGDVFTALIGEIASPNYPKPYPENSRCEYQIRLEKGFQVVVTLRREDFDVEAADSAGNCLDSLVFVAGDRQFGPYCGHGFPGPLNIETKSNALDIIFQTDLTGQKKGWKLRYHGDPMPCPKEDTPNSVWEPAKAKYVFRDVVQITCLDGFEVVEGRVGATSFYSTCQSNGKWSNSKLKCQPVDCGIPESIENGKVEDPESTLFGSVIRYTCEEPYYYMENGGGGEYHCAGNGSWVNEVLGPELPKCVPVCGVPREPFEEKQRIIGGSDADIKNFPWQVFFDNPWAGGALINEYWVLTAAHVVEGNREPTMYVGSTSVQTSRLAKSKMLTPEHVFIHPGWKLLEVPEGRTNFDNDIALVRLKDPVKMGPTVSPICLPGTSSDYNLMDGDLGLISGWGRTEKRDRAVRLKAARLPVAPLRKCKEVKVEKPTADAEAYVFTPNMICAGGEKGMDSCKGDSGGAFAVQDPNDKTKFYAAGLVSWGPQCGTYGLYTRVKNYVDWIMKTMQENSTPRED
Protocol summary: competition binding to active C1s; competitor 50 pM biotinylated TNT005 (Biot-005)

Binder | IC50
humanized TNT005 variant VH variant 3+Vk variant 5 (antibody, V domains shown, also called VH variant 3 + VL variant 5) VH: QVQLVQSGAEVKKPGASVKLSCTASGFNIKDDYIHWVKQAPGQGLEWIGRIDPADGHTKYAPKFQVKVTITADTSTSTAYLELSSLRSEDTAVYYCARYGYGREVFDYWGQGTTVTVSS VL: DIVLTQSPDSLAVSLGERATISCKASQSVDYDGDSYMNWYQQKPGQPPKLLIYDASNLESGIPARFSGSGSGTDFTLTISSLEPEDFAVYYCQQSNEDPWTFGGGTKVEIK | 158 pM
humanized TNT005 variant VH variant 5+Vk variant 5 (antibody, V domains shown, also called VH variant 5 + VL variant 5) VH: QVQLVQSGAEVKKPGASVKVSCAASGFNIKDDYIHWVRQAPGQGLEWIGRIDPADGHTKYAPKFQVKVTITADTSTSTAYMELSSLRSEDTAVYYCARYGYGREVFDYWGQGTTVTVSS VL: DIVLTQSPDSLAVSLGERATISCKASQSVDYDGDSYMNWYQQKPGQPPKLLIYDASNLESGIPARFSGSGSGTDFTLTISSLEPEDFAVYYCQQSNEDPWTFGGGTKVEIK | 137 pM
humanized TNT005 variant VH variant 1+Vk variant 1 (antibody, V domains shown, also called VH variant 1 + VL variant 1) VH: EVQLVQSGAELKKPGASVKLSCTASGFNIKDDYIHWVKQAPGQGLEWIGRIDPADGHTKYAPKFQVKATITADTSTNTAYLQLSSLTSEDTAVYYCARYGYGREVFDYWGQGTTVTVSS VL: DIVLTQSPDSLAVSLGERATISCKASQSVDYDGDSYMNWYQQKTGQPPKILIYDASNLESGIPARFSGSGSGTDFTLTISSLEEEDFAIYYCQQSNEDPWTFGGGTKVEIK | 124 pM
